- EXPERIMENT_DESCRIPTION: in vitro
- MEASUREMENT_SETUP: mouse, c3h/10t1/2 t1 cells
fold induction at 504 h for assorted molecules
// keep it numeric: no unit symbol after the value

Previously resolved entries follow.
MOLECULE	fold induction at 504 h
c1ccc2c(c1)cc1ccc3cccc4ccc2c1c34 [Benzo[a]pyrene, benzo[a]pyrene]	1.15
Cn1c(=O)c2c(ncn2C)n(C)c1=O	1
C=C(C)C12OC3(c4ccccc4)OC1C1C4OC4(CO)C(O)C4(O)C(=O)C(C)=CC4C1(O3)C(C)C2OC(=O)/C=C/C=C/c1ccccc1 (centres unmarked)	2
CC/C(=C(/CC)c1ccc(O)cc1)c1ccc(O)cc1	1.12

Problem: Give reported fold induction at 504 h value for C1CCOC1 [tetrahydrofuran]
Result: 1
